Origin of the recorded values: ChEMBL document CHEMBL1914455

assay: Octanol-water partition coefficient, log P of the compound at pH 7.4; assay type: physicochemical
ASSAY_METRIC: logD
Format: numeric value only, no unit, no commentary.

Q: Supply measured logD of O=C1/C(=C/c2ccc(OCCF)cc2)Oc2ccc([125I])cc21 in your reply.
A: 2.45

###

assay: Displacement of [125I]IMPY from amyloid beta (1 to 42) after 3 hrs by gamma counting
ASSAY_METRIC: Ki (nM)
Give just the numeric value; nM need not be written.

Q: Supply measured Ki of O=C1/C(=C/c2ccc(OCCF)cc2)Oc2ccc(I)cc21 in your reply.
A: 6.81
